test: Cytotoxicity against human SNB75 cells assessed as cell growth at 10 uM after 24 hrs by SRB assay; type: functional; conditions: SNB-75, 24 h, read-out: Activity
Recorded growth at 10 µM by entry
parameter: growth at 10 µM (%)

>>> print(df.to_string())
                                   molecule  unit_spec  value
0  Cc1cc(Cl)ccc1C(=O)Nc1cc(-c2cccnc2)nc(NCCCN2CCOCC2)n1          %   91.3
1  COc1cc(OC)cc(C(=O)Nc2cc(-c3cccnc3)nc(NCCCN3CCOCC3)n2)c1          %    109
2  O=C(Nc1cc(-c2cccnc2)nc(NCCCN2CCOCC2)n1)c1cc(Br)cc(C(F)(F)F)c1          %   72.1
3  O=C(Nc1cc(-c2cccnc2)nc(NCCCN2CCOCC2)n1)c1ccc(F)cc1Cl          %    112
4  COCCCNc1nc(NC(=O)c2cc(Br)cc(C(F)(F)F)c2)cc(-c2cccnc2)n1          %    115
5  COCCCNc1nc(NC(=O)c2ccc(Cl)cc2C)cc(-c2cccnc2)n1          %   87.6
6  COCCCNc1nc(NC(=O)c2cc(OC)cc(OC)c2)cc(-c2cccnc2)n1          %   73.1
